Data origin: PubChem BioAssay

Field: composite z-score. Provide a value for each of the molecules that follow.
# Tested on: Fibrinogen (Alexa647-labelled)
# Experiment Description: fibrinogen binders on compound microarrays, profiling panel, artefact control for SMM control-protein annotation, biochemical, small-molecule microarray, 635/667 nm fluorescence (AID 1131);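 note: z-score merges 667 nm fluorescence with per-spot signal-to-noise over triplicate slides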
# Condition: fibrinogen-A647 binding fluorescence, higher = more signal
No unit in the answer, please; the number alone is enough.

Need composite z-score, item C[N+](C)(C)CCCCCCNC(=O)[C@H]1C[C@H]2C(=O)NCC(=O)N2[C@H]1c1ccc(O)cc1
0.211

Requested read-out: composite z-score. Entry: CN1C(=O)C2C=CC(C(O)c3cccc(O)c3)N(Nc3ccccc3)C2C1=O (configuration not stated)
0.441

Using the record for CCOC(=O)C1=C[C@@H](c2ccccc2)N(S(=O)(=O)c2ccc(C)cc2)[C@H]1c1ccccc1Cl , report its composite z-score.
0.86

Requested field: composite z-score. Item: C=C(COC)/C(=C/C[C@H](OC(=O)c1ccncc1)c1ccccc1OCCO)c1cnc2ccccc2c1
1.01

Item CCCCC(O)C1C=CC2C(=O)N(c3ccccc3)C(=O)C2N1Nc1ccc(C(C)C)cc1 (configuration not stated) has what recorded composite z-score?
1.01

# composite z-score lookup, item CC(C)C(=C=CC[C@H](O)c1cccc(OCCO)c1)C[C@H](O)c1cc(Cl)cc(Cl)c1O
0.713

Name the reported composite z-score value associated with the molecule C=CCC(OC(C)=O)[C@@H]1[C@@H](N(Cc2cccc3ccccc23)C(=O)c2cccc3ccccc23)c2cc(OCCCO)ccc2N1C(=O)c1ccc(-c2ccccc2)cc1 (some centres not stated)
0.643

* * *

# Experiment Description: compound binding in COS7 lysate, probe aLAP1, primary screen, cell lysate, small-molecule microarray (AID 1124);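 note: lysate comes from COS7 cells expressing LAP1 and is applied at 0.3 µg/mL; score merges spot fluorescence near 667 nm with signal-to-noise over triplicate slides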
# Condition: probe aLAP1, fluorescence, higher = more signal
Where composite z-score equals or exceeds 0.7, the correct label is met; where it does not, the label is not met.

Confirm if composite z-score reported for the compound COc1ccc([Si](C)(C)[C@@H]2[C@@H](CCO)O[C@]3(C(=O)N(Cc4ccc(N5CCCCC5=O)cc4)c4ccccc43)[C@H]2C)cc1 is 0.7 or above.
not met

I'd appreciate it if you could say whether COC(=O)c1c(CC[C@@H](CO)NC(=O)N[C@H](Cn2cc(C3(O)CCCCC3)nn2)C(C)C)oc(C(C)=O)c1C(=O)OC has composite z-score at least equal to 0.7.
not met

Could you please find out whether COCCCNC(=O)[C@@]1(Cc2ccccc2CN=[N+]=[N-])N=C(c2ccc(OCCCO)cc2)O[C@H]1c1ccccc1 has composite z-score that meets 0.7 or exceeds it?
met

Please check the record CCOC(=O)C1=CC[C@@H](c2cccc(Cl)c2)N(S(=O)(=O)c2ccc(C)cc2)C1 and state if its composite z-score is at or above 0.7.
not met

Check the entry COc1ccc(CCNC(=O)[C@@]2(Sc3ccc(C)cc3)CC(=O)N(C3Cc4ccccc4C3)[C@@H]2c2ccc(CO)cc2)cc1 : does composite z-score equal or exceed 0.7?
not met

// inclusive: composite z-score at least 0.7? input: COc1ccc([Si](C)(C)[C@H]2[C@H](CC(=O)N(CCO)Cc3ccccc3)O[C@@]3(C(=O)N(Cc4cccc(N5CCOC5=O)c4)c4ccccc43)[C@@H]2C)cc1
met

Hello, I need to know if O=C(N1CCCCC1)[C@@]1(CCS(=O)(=O)c2ccccc2)COC(c2ccc(OCCCO)cc2)=N1 has measured composite z-score not below 0.7. Thanks!
met

hey, is composite z-score for this one >= 0.7? CCC[C@@H]1C[C@@]1(CCC)[C@@H](NC(=O)OCc1ccccc1)c1ccc(-c2ccccc2)cc1
not met

Check if composite z-score >= 0.7 (inclusive). Item: CC(C)[Si](C#C[Si](C(C)C)(C(C)C)C(C)C)(O[C@H](C)c1cn([C@H](CO)Cc2ccccc2)nn1)C(C)C
not met

Has C=C(COC)C(=O)CC[C@@H](OC(=O)c1cccnc1)c1ccc(OCCO)cc1 a recorded composite z-score greater than or equal to 0.7?
not met

Please tell me: is the compound CN(C)c1ccc(C(O)C2C=CC3C(=O)N(c4ccccc4)C(=O)C3N2Nc2ccc([N+](=O)[O-])cc2)cc1 (stereo not given) at or over 0.7 in terms of composite z-score?
not met

In plain terms: is recorded composite z-score at least 0.7 for COCCCNC(=O)[C@@]1(Cc2ccccc2N=[N+]=[N-])N=C(c2ccc(OCCCO)cc2)O[C@H]1c1ccccc1 ?
met

Decide: is the reported value of composite z-score for C=C[C@@H](COC(C)=O)N(C(=O)OC(C)(C)C)S(=O)(=O)c1ccc(Br)cc1 equal to or greater than 0.7?
not met

Is the recorded value of composite z-score equal to or greater than 0.7 for this compound? COc1cc(OC)c(C(O)C2C=CC3C(=O)N(C)C(=O)C3N2NC(=O)OC(C)(C)C)cc1Br (stereo not given)
met

* * *

# Experimental Target: Epidermal growth factor receptor (Homo sapiens) (UniProt P00533)
# Sequence (P00533 whole entry, looked up): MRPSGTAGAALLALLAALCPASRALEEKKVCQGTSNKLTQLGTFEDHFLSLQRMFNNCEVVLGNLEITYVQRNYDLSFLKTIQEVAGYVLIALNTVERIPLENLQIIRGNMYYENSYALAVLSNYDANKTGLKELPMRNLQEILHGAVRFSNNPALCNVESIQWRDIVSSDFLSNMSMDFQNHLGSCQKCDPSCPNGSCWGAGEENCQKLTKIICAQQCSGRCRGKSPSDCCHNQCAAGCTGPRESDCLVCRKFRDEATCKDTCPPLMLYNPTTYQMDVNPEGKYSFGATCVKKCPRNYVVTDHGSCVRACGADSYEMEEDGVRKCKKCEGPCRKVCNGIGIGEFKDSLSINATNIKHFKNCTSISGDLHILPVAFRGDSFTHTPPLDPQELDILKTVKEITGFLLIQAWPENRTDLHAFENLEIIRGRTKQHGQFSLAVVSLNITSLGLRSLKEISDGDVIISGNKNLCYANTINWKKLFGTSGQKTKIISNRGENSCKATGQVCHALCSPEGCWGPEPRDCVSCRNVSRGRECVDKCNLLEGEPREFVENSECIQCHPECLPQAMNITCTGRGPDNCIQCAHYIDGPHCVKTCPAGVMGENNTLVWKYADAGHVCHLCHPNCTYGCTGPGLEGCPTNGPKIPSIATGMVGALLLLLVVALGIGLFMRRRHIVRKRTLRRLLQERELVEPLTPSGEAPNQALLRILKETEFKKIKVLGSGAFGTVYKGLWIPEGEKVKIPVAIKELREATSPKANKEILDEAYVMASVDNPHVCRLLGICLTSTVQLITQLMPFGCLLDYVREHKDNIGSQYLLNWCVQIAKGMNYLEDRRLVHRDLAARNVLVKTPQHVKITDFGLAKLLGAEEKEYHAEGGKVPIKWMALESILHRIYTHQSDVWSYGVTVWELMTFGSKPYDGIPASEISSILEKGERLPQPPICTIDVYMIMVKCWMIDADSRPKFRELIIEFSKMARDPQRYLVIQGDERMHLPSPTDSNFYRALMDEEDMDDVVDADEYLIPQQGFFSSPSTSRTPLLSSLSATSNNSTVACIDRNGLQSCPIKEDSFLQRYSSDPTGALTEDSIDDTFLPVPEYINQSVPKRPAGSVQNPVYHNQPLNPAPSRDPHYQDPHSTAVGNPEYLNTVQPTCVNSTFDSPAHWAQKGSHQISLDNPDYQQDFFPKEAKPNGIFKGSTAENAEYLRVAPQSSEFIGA
# Experiment Description: EGFR binders on small-molecule microarrays, primary screen, biochemical, small-molecule microarray, 635 nm fluorescence (AID 1104);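 note: score merges 667 nm emission intensity with spot signal to noise over triplicate slides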
# Condition: EGFR binding, higher = more signal
Parameter Measured: composite z-score
Output spec: single numeric token, no unit.

Data request, read-out composite z-score, for N#Cc1ccc(NN2C(C(O)c3ccc(F)cc3)C=CC3C(=O)N(c4ccccc4)C(=O)C32)cc1 (stereo not given)
-0.746

Item O=C1N(Cc2ccccc2)c2ccccc2[C@@H]2OC(c3ccc(OCCCO)cc3)=N[C@]12Cc1ccccc1 has what recorded composite z-score?
0.224

I have this compound here, CC(CO)N1C(=O)[C@@H]2[C@H]3C(=O)OCC=C[C@H]3OC23C=CCN(Cc2ccccc2)C(=O)[C@@H]13 (stereo not given in full) , and I need its recorded composite z-score.
-1.18

Value lookup for composite z-score; key = COC(=O)c1c(CC[C@@H](CO)NC(=O)N[C@H](Cn2cc(C3(O)CCCCC3)nn2)C(C)C)oc(C(C)=O)c1C(=O)OC
0.557

Value lookup for composite z-score; key = CN1C(=O)C2C=CC(C(O)c3ccc(F)cc3)N(Nc3ccccc3)C2C1=O (stereo not given)
-0.165

Given the compound COC(=O)[C@H](Cc1ccccc1)N1CC(/C=C/C2CC2)=C[C@H]1[C@H](O)Cc1ccccc1 , what is its reported composite z-score?
0.237

Reported composite z-score, compound CC(C)(C)N1CC=CC23O[C@@H]4C=CCCOC(=O)C4[C@H]2C(=O)N(CCO)[C@@H]3C1=O (stereo not given in full) : ____
-0.306

Given the entry CC(C)C(=C=CC[C@H](O)c1ccc(OCCO)cc1)C[C@H](O)c1ccccn1 , report its measured composite z-score.
-0.511

Find the recorded composite z-score belonging to CCOC(=O)C[C@H]1[C@H](OC(=O)Cc2ccc3c(c2)OCO3)[C@@H](NC(=O)CC(C)C)c2cc(OCCCO)ccc2N1C(=O)Cc1ccc(OC)cc1 and report it.
-0.0638

Could you share which composite z-score value was measured for O=C1NC(=O)C2C1C=CC(C(O)c1c(F)cccc1Cl)N2Nc1ccc(Cl)cc1Cl (stereo not given) ?
-0.391

Find the recorded composite z-score belonging to COCCOC(=O)N1C(=O)[C@@]2(c3cc(C#Cc4ccc(OC)cc4)ccc31)[C@H](C(=O)Nc1nc3ccccc3s1)[C@H]1C(=O)O[C@H](c3ccccc3)[C@H](c3ccccc3)N1[C@@H]2c1ccc(OCCO)cc1 and report it.
0.654

// lookup composite z-score for Cc1cc(C)cc(N2C(=O)CSC2c2cccc([N+](=O)[O-])c2)c1 (stereo not given)
0.279

// composite z-score lookup, key: [N-]=[N+]=NCc1ccccc1[C@H]1OC(c2ccc(OCCCO)cc2)=N[C@@]1(CCS(=O)(=O)c1ccccc1)C(=O)NCC(O)CO (stereo not given in full)
-0.0986

Item C=CCC(OC(C)=O)[C@@H]1[C@@H](N(Cc2cc3ccccc3o2)C(=O)c2ccc(C)cc2)c2cc(OCCCO)ccc2N1C(=O)Cc1ccc(OC)cc1 (stereo not given in full) has what recorded composite z-score?
-0.147

Consider the compound shown here: CC[C@H]1C2=C3C(CC[C@H]4C(OCc5ccc(F)cc5C(F)(F)F)OC[C@](C)([C@@H]34)N(C(=O)OC(C)(C)C)C2)C(COC)C1COC (stereo not given in full) What is its recorded composite z-score?
-0.52

* * *

# Experimental Target: Focal adhesion kinase 1 (Homo sapiens)
# Experiment Description: small-molecule microarray binders of FAK, primary screen, biochemical, 635/667 nm fluorescence, BSA, DTT (AID 1130);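 note: composite of spot emission at 667 nm and signal to noise over triplicate slides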
# Condition: PTK2 binding, 635 nm fluorescence, higher = more signal
Answer not satisfied if composite z-score is under 0.6, and satisfied if it is 0.6 or more.

Identify whether the reported composite z-score of the following compound is 0.6 or greater: O=C1OCCC=C[C@H]2OC34C=CCN(Cn5nnc6ccccc65)C(=O)[C@H]3N(CCCCCCO)C(=O)[C@@H]4C12 (some centres undefined)
not satisfied

Assess whether reported composite z-score for O=C1C2C=CC(C(O)c3ccccc3)N(Nc3ccccc3F)C2C(=O)N1c1ccccc1 (centres undefined) sits at 0.6 or higher.
not satisfied

Would you say N#Cc1ccc(C(O)C2C=CC3C(=O)N(c4ccccc4)C(=O)C3N2Nc2ccccc2)cc1 (centres undefined) shows composite z-score at minimum 0.6?
not satisfied

Answer whether composite z-score of C=CCC(OC(C)=O)[C@@H]1[C@@H](N(Cc2cc3ccccc3o2)C(=O)Cc2ccc(F)cc2)c2cc(OCCCO)ccc2N1C(=O)c1ccc2ccccc2c1 (some centres undefined) is greater than or equal to 0.6.
not satisfied

State whether the measured composite z-score reaches 0.6, counting equality as reaching it, for C=C(COC)/C(=C/C[C@H](OC(C)=O)c1ccc(OCCO)cc1)c1cc(C(=O)OC)ccc1OC
not satisfied

Decide: composite z-score of O=C1O[C@@H](c2ccccc2)[C@@H](c2ccccc2)N2[C@@H](c3ccc(O)cc3)[C@]3(C(=O)Nc4ccc(C#CC5(O)CCCCCC5)cc43)[C@@H](C(=O)NC[C@H](O)c3ccccc3)[C@H]12 >= 0.6?
not satisfied

Record COc1ccc([Si](C)(C)[C@H]2[C@H](CC(=O)N(CCO)Cc3ccccc3)O[C@@]3(C(=O)N(Cc4cccc(N5CCOC5=O)c4)c4ccccc43)[C@@H]2C)cc1 ; criterion: composite z-score no lower than 0.6. Met?
satisfied

composite z-score >= 0.6 for COC(=O)c1cn(C[C@@H](Cc2ccccc2)NC(=O)N[C@H](CO)CCc2oc(C(C)=O)c(C(=O)OC)c2C(=O)OC)nn1 ?
not satisfied

Evaluate C=CCN1C(=O)[C@@]2(CCS(=O)(=O)c3ccccc3)N=C(c3ccc(OCCCO)cc3)O[C@H]2c2ccccc21 : composite z-score at minimum 0.6?
satisfied

Does the compound COc1cc(CO)cc(I)c1O[C@H]1C=C(C(=O)NCCO)C[C@@H](NCc2ccc(F)cc2)[C@@H]1O have recorded composite z-score that is 0.6 or more?
not satisfied

Is the recorded value of composite z-score equal to or greater than 0.6 for this compound? CCCCCCc1nc(-c2cc(C)c(OC)c(C)c2)c(C)c2c1[Si](C(C)C)(C(C)C)OC2
not satisfied

// inclusive: composite z-score at least 0.6? input: O=C1N(Cc2ccccc2)c2ccccc2[C@@H]2OC(c3ccc(OCCCO)cc3)=N[C@]12Cc1ccccc1
satisfied

# bool: composite z-score of CCCCO[C@H]1C[C@H]2C(I)=C[C@@H]1C(=O)[C@]21CO1 >= 0.6
not satisfied

Identify whether the reported composite z-score of the following compound is 0.6 or greater: NCCCCCNC(=O)[C@@H]1C[C@@H]2C(=O)NCC(=O)N2[C@@H]1c1cccc(OCCO)c1
not satisfied

Hi team, for CCOC(=O)C[C@H]1[C@H](OC(=O)c2cc3ccccc3oc2=O)[C@@H](NC(=O)c2ccc(-c3ccccc3)cc2)c2cc(OCCCO)ccc2N1C(=O)c1ccc2ccccc2n1 , is the recorded composite z-score at or above 0.6?
not satisfied

composite z-score >= 0.6 for C=C(/C(=C/C[C@H](OC(=O)c1ccncc1)c1ccc(CO)o1)c1cc(C(=O)OC)ccc1OC)C(C)C ?
not satisfied

// inclusive: composite z-score at least 0.6? input: COCCOC(=O)N1C(=O)[C@@]2(c3cc(C#CC4=CCCCC4)ccc31)[C@H](c1ccc(OCCO)cc1)N1[C@H](c3ccccc3)[C@H](c3ccccc3)OC(=O)[C@H]1[C@@H]2C(=O)NC[C@H](O)c1ccccc1
not satisfied

Hi team, for CC[C@H]1C2=C3C(CC[C@H]4C(OCc5ccc(F)cc5C(F)(F)F)OC[C@](C)([C@@H]34)N(C(=O)OC(C)(C)C)C2)C(COC)C1COC (some centres undefined) , is the recorded composite z-score at or above 0.6?
not satisfied

Check if composite z-score >= 0.6 (inclusive). Item: C=CCOC(=O)[C@H]1[C@@H]2C(=O)O[C@@H](c3ccccc3)[C@@H](c3ccccc3)N2[C@@H](c2ccc(OCCOC(=O)[C@@H]3C[C@@H]4C(=O)N[C@@H](CCCCNC(C)=O)C(=O)N4[C@@H]3c3ccc(O)cc3)cc2)[C@]12C(=O)Nc1ccc(I)cc12
satisfied
